Experiment: C. albicans growth with fluconazole, confirmation, fluorescence, retest (AID 2467)
Format: functional, cell-based
Active and inactive are the calls of the source. No stated cut-off is given here; in the data, actives have a measured EC50 and inactives only a lower limit.
Endpoint name: EC50

[[record]]
molecule = "O=C(N/N=C/c1cc(Br)cc(Cl)c1O)c1ccc2c(c1)OCO2"
reported_value = "1.03 µM (active)"

[[record]]
molecule = "Cc1[nH]n(-c2cccc3ccccc23)c(=O)c1/C=N/NC(=O)c1cccc([N+](=O)[O-])c1"
reported_value = "> 38 µM (not active)"

[[record]]
molecule = "C/C(=N\\NC(=O)c1nn(C)c(C)c1Br)c1ccc(NC(=O)C2CCCC2)cc1"
reported_value = "> 38 µM (not active)"

[[record]]
molecule = "O=C(OCn1ncc(Cl)c(Cl)c1=O)c1ccccc1Cl"
reported_value = "> 38 µM (not active)"

[[record]]
molecule = "CCN=C(S)NNC(=O)c1cc(-c2cccc(C)c2)nc2ccccc12"
reported_value = "2.5 µM (active)"


Provide the reported EC50 of each entry below, same order.
1. CNC(=S)N/N=C/c1ccc(-c2ccc(Cl)c([N+](=O)[O-])c2)o1
2. NC(=O)c1c(NC(=O)c2ccncc2)sc2c1CCCC2
3. O=C(c1ccc(C(=O)N2CCN(c3ccccc3F)CC2)nc1)N1CCN(c2ccccc2F)CC1
4. O=C(Nc1nnc(C2COc3ccccc3O2)o1)c1ccc(F)cc1 (stereo unspecified)
5. C=CCOc1ccc(/C=C2\SC(=S)N(NS(=O)(=O)c3ccc(C)cc3)C2=O)cc1

Result:
1. > 38 µM (not active)
2. 2.12 µM (active)
3. > 38 µM (not active)
4. 0.968 µM (active)
5. 1.66 µM (active)

// EC50 value for CCCCC1SC(N/N=C/c2ccco2)=NC1=O (stereo unspecified) : 5.08 µM (active)
